- System: SK-MEL-28
- assay-name: Cytotoxicity against human SK-MEL-28 cells by MTT assay
- Format: functional, cell-based
value-kind: IC50 (nM)
Give the quantity in nM, number only.

Recorded IC50, per entry:
> print(dat)
                               input.smiles  target.of.assay  quantitative.result
1  CCCn1c2cc(OCc3ccccc3)ccc2c2cc[n+](CC(C)C)c(C)c21.[Br-]        SK-MEL-28                  600
2  CCCOc1ccc2c3cc[n+](CCC(C)C)c(C)c3n(CCC)c2c1.[Br-]        SK-MEL-28                 3000
3  CCCOc1ccc2c3cc[n+](CC)c(C)c3n(CCC)c2c1.[Br-]        SK-MEL-28                 8000

Kindly consider the entry below.
Req: GET /values?readout=IC50&item= CCCn1c2cc(OCCC(C)C)ccc2c2cc[n+](CCC)c(C)c21.[Br-]
Resp: 900

Reference source: ChEMBL document CHEMBL3414536
